# System: WaGa
# test method notes: qHTS assay to identify novel small-molecules to repurpose for Merkel cell carcinoma treatment (AID 1296009); further: nearly all actives have a fitted effect of over 60% in size
# recorded conditions: MCC and control cell lines, CellTiter-Glo viability, 72 h; series mostly up to 46 µM
# Excerpt: MCC is a rare and aggressive neuroendocrine skin cancer with limited treatment options. Approximately 80% of MCCs have the Merkel cell polyomavirus (MCPyV) DNA integrated into the host genome (virus-positive: VP-MCC) and viral oncogenes drive oncogenesis. The remaining MCCs are virus-negative (VN-MCC) and are caused by UV mutagenesis. […] Using cell viability as a readout (CellTiter-Glo assay) we found both overlapping and distinct drugs that can be repurposed for the treatment of VP-MCC and VN-MCC. […]
Records with an inconclusive call do not appear. The source made the active and inactive calls. The call rests on the fitted dose curve; in most records, active means well fitted inhibition curve with a large enough effect; inconclusive means small, poorly fitted or top-dose-only effect; inactive means flat fitted curve, though single readings scatter.
endpoint: outcome

Record excerpt, results attached:
C[C@]12CC[C@H]3[C@@H](CCC4=CC(=O)CC[C@@]43C)[C@H]1CC[C@H]2OC(=O)CCC1CCCC1 : inactive
CC(Cc1ccc(O)cc1)NCC(O)c1cc(O)cc(O)c1 (stereo not given) : inactive
CSCC[C@@H](NC(=O)[C@@H](Cc1ccccc1)NC(=O)CNC(=O)CNC(=O)[C@@H](N)Cc1ccc(O)cc1)C(=O)O : inactive
O=S(=O)(F)Cc1ccccc1 : inactive

Form field outcome, entry "C1CCC(NC2CCCCC2)CC1" : inactive
